assay: Antiproliferative activity against human MCF7/ADR cells after 72 hrs by MTT assay; format: functional, cell-based; settings: NCI/ADR-RES
Known pIC50 of a selection of compounds
The scale used: pIC50 is minus the common logarithm of the concentration in molar units.

COc1cccc2c1C(=O)c1c(O)c3c(c(O)c1C2=O)C[C@@](O)(C(=O)CO)C[C@@H]3O[C@H]1C[C@H](N)[C@H](O)[C@H](C)O1 5.53
O=S(=O)(c1ccc(-c2cnc(C3CC3)o2)cc1)N1CCCOc2ccc(F)cc21 7.70
O=S(=O)(c1ccc(-c2cnc(C3CC3)o2)cc1)N1CCCOc2cc(F)ccc21 7.92

Consider the record given below.
Task: Look up pIC50 for this compound: `CC[C@]1(O)C[C@H]2CN(CCc3c([nH]c4ccccc34)[C@@](C(=O)OC)(c3cc4c(cc3OC)N(C=O)[C@H]3[C@@](O)(C(=O)OC)[C@H](OC(C)=O)[C@]5(CC)C=CCN6CC[C@]43[C@@H]65)C2)C1`
Output: 6.51

----------
experiment: Antiproliferative activity against human PC3 cells after 72 hrs by MTT assay; type: functional, cell-based; settings: PC-3, 72 h
Known pIC50 of a selection of compounds
The scale used: pIC50 is minus the common logarithm of the concentration in molar units.

Smiles Entry	pIC50
Cc1ccc2c(c1)OCCCN2S(=O)(=O)c1ccc(-c2cnc(C3CC3)o2)cc1	6.62
O=S(=O)(c1ccc(-c2cnc(C3CC3)o2)cc1)N1CCCOc2ccc(F)cc21	7.74
O=S(=O)(c1ccc(-c2cnc(C3CC3)o2)cc1)N1CCCOc2cc(F)ccc21	7.38

Consider the record given below.
Task: Look up pIC50 for this compound: `O=S(=O)(c1ccc(-c2cnc(C3CC3)o2)cc1)N1CCCOc2ccc(Cl)cc21`
Output: 7.74
